Reported melting point values for a set of molecules

| STRUCTURE SMILES STRING | melting point, °C |
| --- | --- |
| C=CCn1nnnc1-c1cc(-n2c(=O)cc(C(F)(F)F)n(C)c2=O)ccc1Cl | 160 |
| CCOCn1nnc(-c2cc(-n3c(=O)cc(C(F)(F)F)n(C)c3=O)ccc2Cl)n1 | 140 |
| CCn1nnc(COc2cc(-n3c(=O)cc(C(F)(F)F)n(C)c3=O)c(F)cc2Cl)n1 | 126 |
| CCn1nnnc1-c1cc(-n2c(=O)cc(C(F)(F)F)n(C)c2=O)ccc1Cl | 202 |
| C=CCn1nnc(-c2cc(-n3c(=O)cc(C(F)(F)F)n(C)c3=O)ccc2Cl)n1 | 116 |
| Cn1nnnc1-c1cc(-n2c(=O)cc(C(F)(F)F)n(C)c2=O)ccc1Cl | 185 |
| Cn1c(C(F)(F)F)cc(=O)n(-c2ccc(Cl)c(-c3nc4ccccc4s3)c2)c1=O | 189 |

====

Reported melting point values for the following compounds.

| STRUCTURE SMILES STRING | melting point |
| --- | --- |
| CCOC(=O)c1csc(-c2cc(-n3c(=O)cc(C(F)(F)F)n(C)c3=O)ccc2Cl)n1 | 197 °C |
| Cn1c(C(F)(F)F)cc(=O)n(-c2ccc(Cl)c(-c3nnn(C(C)(C)C)n3)c2)c1=O | 154 °C |
| COC(=O)Cn1nnc(COc2cc(-n3c(=O)cc(C(F)(F)F)n(C)c3=O)c(F)cc2Cl)n1 | 65 °C |
| Cc1nc(COc2cc(-n3c(=O)cc(C(F)(F)F)n(C)c3=O)c(Cl)cc2Cl)no1 | 167 °C |
| Cn1c(C(F)(F)F)cc(=O)n(-c2ccc(Cl)c(-c3nc4ccccc4o3)c2)c1=O | 183 °C |
| COC(=O)/C=C(\COc1cc(-n2c(=O)cc(C(F)(F)F)n(C)c2=O)c(Cl)cc1Cl)OC | 116 °C |
| Cn1c(C(F)(F)F)cc(=O)n(-c2cc(OCc3nnn[nH]3)c(Cl)cc2F)c1=O | 82 °C |
| Cn1nnc(COc2cc(-n3c(=O)cc(C(F)(F)F)n(C)c3=O)c(F)cc2Cl)n1 | 167 °C |
| Cn1c(C(F)(F)F)cc(=O)n(-c2cc(OCc3ncon3)c(Cl)cc2F)c1=O | 122 °C |
| CN(C)C(=O)Cn1nnc(-c2cc(-n3c(=O)cc(C(F)(F)F)n(C)c3=O)ccc2Cl)n1 | 208 °C |
| Cn1nnc(-c2cc(-n3c(=O)cc(C(F)(F)F)n(C)c3=O)ccc2Cl)n1 | 192 °C |
| Cc1cc(COc2cc(-n3c(=O)cc(C(F)(F)F)n(C)c3=O)c(F)cc2Cl)on1 | 154 °C |
| CCn1nnnc1COc1cc(-n2c(=O)cc(C(F)(F)F)n(C)c2=O)c(F)cc1Cl | 60 °C |
| Cn1c(C(F)(F)F)cc(=O)n(-c2ccc(Cl)c(-c3nnn(CC(N)=O)n3)c2)c1=O | 200 °C |
| CCOC(=O)/C=C(\COc1cc(-n2c(=O)cc(C(F)(F)F)n(C)c2=O)c(Cl)cc1Cl)OC | 128 °C |
| CC(C)c1cc(COc2cc(-n3c(=O)cc(C(F)(F)F)n(C)c3=O)c(F)cc2Cl)on1 | 128 °C |
| COCn1nnc(-c2cc(-n3c(=O)cc(C(F)(F)F)n(C)c3=O)ccc2Cl)n1 | 80 °C |
| CCOCn1nnnc1-c1cc(-n2c(=O)cc(C(F)(F)F)n(C)c2=O)ccc1Cl | 157 °C |
| CCOC(=O)/C=C(\COc1cc(-n2c(=O)cc(C(F)(F)F)n(C)c2=O)c(F)cc1Cl)OC | 78 °C |
| CCCCn1nnc(-c2cc(-n3c(=O)cc(C(F)(F)F)n(C)c3=O)ccc2Cl)n1 | 108 °C |
| Cn1c(C(F)(F)F)cc(=O)n(-c2cc(-c3nc4ccccc4s3)c(Cl)cc2F)c1=O | 211 °C |
| Cn1c(C(F)(F)F)cc(=O)n(-c2cc(-c3nc4ccccc4o3)c(Cl)cc2F)c1=O | 178 °C |
| COC(=O)Cn1nnnc1-c1cc(-n2c(=O)cc(C(F)(F)F)n(C)c2=O)ccc1Cl | 130 °C |
| COC(=O)Cn1nnc(-c2cc(-n3c(=O)cc(C(F)(F)F)n(C)c3=O)ccc2Cl)n1 | 172 °C |
| Cn1c(C(F)(F)F)cc(=O)n(-c2cc(Oc3nnc(C(F)(F)F)s3)c(Cl)cc2Cl)c1=O | 90 °C |
| CC(C)n1nnc(-c2cc(-n3c(=O)cc(C(F)(F)F)n(C)c3=O)ccc2Cl)n1 | 147 °C |
| CC(C)Cc1csc(-c2cc(-n3c(=O)cc(C(F)(F)F)n(C)c3=O)c(Cl)cc2Cl)n1 | 167 °C |
| Cc1ccc2nc(-c3cc(-n4c(=O)cc(C(F)(F)F)n(C)c4=O)c(Cl)cc3Cl)oc2c1 | 200 °C |
| Cc1cc(COc2cc(-n3c(=O)cc(C(F)(F)F)n(C)c3=O)c(Cl)cc2Cl)on1 | 185 °C |
| Cn1c(C(F)(F)F)cc(=O)n(-c2cc(OCc3cc(C(C)(C)C)no3)c(Cl)cc2F)c1=O | 142 °C |
| Cn1c(C(F)(F)F)cc(=O)n(-c2cc(-c3nc4ccccc4s3)c(Cl)cc2Cl)c1=O | 195 °C |

// data source = patent US7754880B2
